experiment: Selectivity index, ratio of IC50 for human WI-38 cells to IC50 for human HepG2 cells; assay type: toxicity; details: WI-38 cells versus HepG2 cells, read-out: Ratio IC50
This listing pairs compounds with measured selectivity ratio.

| MOLECULE_SMILES | selectivity ratio |
| --- | --- |
| Cc1ccc(-n2cc(CN3C(=O)CN(/N=C/c4ccc([N+](=O)[O-])o4)C3=O)nn2)cc1 | 0.824 |
| O=C1CN(/N=C/c2ccc([N+](=O)[O-])o2)C(=O)N1Cc1cn(-c2ccccc2)nn1 | 2.11 |
| O=C1CN(/N=C/c2ccc([N+](=O)[O-])o2)C(=O)N1Cc1cn(-c2ccc(Cl)cc2)nn1 | 0.376 |
| O=C(CN1C(=O)CN(/N=C/c2ccc([N+](=O)[O-])o2)C1=O)c1ccc(Cl)cc1 | 2.29 |
| O=C1CN(/N=C/c2ccc([N+](=O)[O-])o2)C(=O)N1Cc1ccccc1 | 1.82 |
| O=C1CN(/N=C/c2ccc([N+](=O)[O-])o2)C(=O)N1Cc1ccc([N+](=O)[O-])cc1 | 1.42 |
| O=C(CN1C(=O)CN(/N=C/c2ccc([N+](=O)[O-])o2)C1=O)c1ccccc1 | 0.824 |
| O=C1CN(/N=C/c2ccc([N+](=O)[O-])o2)C(=O)N1Cc1ccc(Br)cc1 | 1.78 |
| O=c1[nH]cc(F)c(=O)[nH]1 | 1.13 |
| COc1ccc(C(=O)CN2C(=O)CN(/N=C/c3ccc([N+](=O)[O-])o3)C2=O)cc1 | 0.948 |
| O=C1CN(/N=C/c2ccc([N+](=O)[O-])o2)C(=O)N1Cc1cn(-c2ccc([N+](=O)[O-])cc2)nn1 | 2.92 |
| C#CCN1C(=O)CN(/N=C/c2ccc([N+](=O)[O-])o2)C1=O | 3.46 |
| NS(=O)(=O)c1ccc(-n2cc(CN3C(=O)CN(/N=C/c4ccc([N+](=O)[O-])o4)C3=O)nn2)cc1 | 0.807 |
| O=C1CN(/N=C/c2ccc([N+](=O)[O-])o2)C(=O)N1Cc1cn(-c2ccc(S(=O)(=O)Nc3nccs3)cc2)nn1 | 1.23 |
| O=C(CN1C(=O)CN(/N=C/c2ccc([N+](=O)[O-])o2)C1=O)c1ccc(Br)cc1 | 0.83 |
| Cc1ccc(C(=O)CN2C(=O)CN(/N=C/c3ccc([N+](=O)[O-])o3)C2=O)cc1 | 0.628 |

----------
Each item that follows carries a reported IC50 at 72 h.
assay: Cytotoxicity in human WI-38 cells assessed as reduction in cell viability incubated for 72 hrs by MTT assay; assay type: toxicity, cell-based

| MOLECULE_SMILES | IC50 at 72 h [µM] |
| --- | --- |
| O=C1CN(/N=C/c2ccc([N+](=O)[O-])o2)C(=O)N1Cc1ccccc1 | 0.216 |
| O=C(CN1C(=O)CN(/N=C/c2ccc([N+](=O)[O-])o2)C1=O)c1ccccc1 | 0.226 |
| O=C(CN1C(=O)CN(/N=C/c2ccc([N+](=O)[O-])o2)C1=O)c1ccc(Br)cc1 | 0.24 |
| O=C1CN(/N=C/c2ccc([N+](=O)[O-])o2)C(=O)N1Cc1ccc([N+](=O)[O-])cc1 | 0.181 |
| NS(=O)(=O)c1ccc(-n2cc(CN3C(=O)CN(/N=C/c4ccc([N+](=O)[O-])o4)C3=O)nn2)cc1 | 0.249 |
| COc1ccc(C(=O)CN2C(=O)CN(/N=C/c3ccc([N+](=O)[O-])o3)C2=O)cc1 | 0.14 |
| O=C1CN(/N=C/c2ccc([N+](=O)[O-])o2)C(=O)N1Cc1cn(-c2ccc([N+](=O)[O-])cc2)nn1 | 0.183 |
| O=c1[nH]cc(F)c(=O)[nH]1 | 0.192 |
| Cc1ccc(-n2cc(CN3C(=O)CN(/N=C/c4ccc([N+](=O)[O-])o4)C3=O)nn2)cc1 | 0.232 |

----------
test: Cytotoxicity in human WI-38 cells assessed as reduction in cell viability incubated for 72 hrs by MTT assay; format: toxicity, cell-based

| MOLECULE_SMILES | IC50 at 72 h, nM |
| --- | --- |
| O=C(CN1C(=O)CN(/N=C/c2ccc([N+](=O)[O-])o2)C1=O)c1ccc(Cl)cc1 | 251 |
| O=C1CN(/N=C/c2ccc([N+](=O)[O-])o2)C(=O)N1 | 162 |
| C#CCN1C(=O)CN(/N=C/c2ccc([N+](=O)[O-])o2)C1=O | 306 |
| O=C1CN(/N=C/c2ccc([N+](=O)[O-])o2)C(=O)N1Cc1cn(-c2ccc(Cl)cc2)nn1 | 150 |

----------
assay: Selectivity index, ratio of IC50 for human WI-38 cells to IC50 for human MCF7 cells; assay type: toxicity; conditions: WI-38 cells versus MCF7 cells, read-out: Ratio IC50
Reported selectivity ratio values for a set of molecules

| MOLECULE_SMILES | selectivity ratio |
| --- | --- |
| O=C1CN(/N=C/c2ccc([N+](=O)[O-])o2)C(=O)N1Cc1cn(-c2ccc(S(=O)(=O)Nc3nccs3)cc2)nn1 | 0.727 |
| O=C1CN(/N=C/c2ccc([N+](=O)[O-])o2)C(=O)N1Cc1cn(-c2ccc([N+](=O)[O-])cc2)nn1 | 1.56 |
| O=C(CN1C(=O)CN(/N=C/c2ccc([N+](=O)[O-])o2)C1=O)c1ccccc1 | 2.98 |
| O=C1CN(/N=C/c2ccc([N+](=O)[O-])o2)C(=O)N1Cc1cn(-c2ccccc2)nn1 | 1.74 |
| O=c1[nH]cc(F)c(=O)[nH]1 | 0.865 |
| O=C1CN(/N=C/c2ccc([N+](=O)[O-])o2)C(=O)N1Cc1ccccc1 | 1.92 |
| C#CCN1C(=O)CN(/N=C/c2ccc([N+](=O)[O-])o2)C1=O | 2.79 |
| Cc1ccc(-n2cc(CN3C(=O)CN(/N=C/c4ccc([N+](=O)[O-])o4)C3=O)nn2)cc1 | 1.6 |
| O=C1CN(/N=C/c2ccc([N+](=O)[O-])o2)C(=O)N1Cc1ccc(Br)cc1 | 1.5 |

----------
test system: HeLa; experiment: Anticancer activity against human HeLa cells incubated for 72 hrs by MTT assay; type: functional, cell-based
Rule for this label: Condition met means IC50 is less than 0.1 µM; Condition not met means IC50 is at least 0.1 µM.

| MOLECULE_SMILES | TARGET_SYSTEM | CLASS |
| --- | --- | --- |
| O=C(CN1C(=O)CN(/N=C/c2ccc([N+](=O)[O-])o2)C1=O)c1ccc(Cl)cc1 | HeLa | Condition met |
| O=C(CN1C(=O)CN(/N=C/c2ccc([N+](=O)[O-])o2)C1=O)c1ccc(Br)cc1 | HeLa | Condition met |
| Cc1ccc(-n2cc(CN3C(=O)CN(/N=C/c4ccc([N+](=O)[O-])o4)C3=O)nn2)cc1 | HeLa | Condition met |
| O=c1[nH]cc(F)c(=O)[nH]1 | HeLa | Condition not met |
| O=C1CN(/N=C/c2ccc([N+](=O)[O-])o2)C(=O)N1Cc1ccc(Br)cc1 | HeLa | Condition not met |

----------
assay: Selectivity index, ratio of IC50 for human WI-38 cells to IC50 for human MCF7 cells; format: toxicity; conditions: WI-38 cells versus MCF7 cells, read-out: Ratio IC50
selectivity ratio by entry:

| MOLECULE_SMILES | selectivity ratio |
| --- | --- |
| COc1ccc(C(=O)CN2C(=O)CN(/N=C/c3ccc([N+](=O)[O-])o3)C2=O)cc1 | 0.706 |
| O=C(CN1C(=O)CN(/N=C/c2ccc([N+](=O)[O-])o2)C1=O)c1ccc(Cl)cc1 | 2.14 |
| O=C1CN(/N=C/c2ccc([N+](=O)[O-])o2)C(=O)N1Cc1ccc([N+](=O)[O-])cc1 | 1.77 |

----------
system: HeLa; assay: Anticancer activity against human HeLa cells incubated for 72 hrs by MTT assay; assay type: functional, cell-based
Items are presented alongside their recorded IC50.

| MOLECULE_SMILES | RESULT_UNIT | IC50 |
| --- | --- | --- |
| COc1ccc(C(=O)CN2C(=O)CN(/N=C/c3ccc([N+](=O)[O-])o3)C2=O)cc1 | nM | 87 |
| O=C1CN(/N=C/c2ccc([N+](=O)[O-])o2)C(=O)N1 | nM | 166 |
| O=C1CN(/N=C/c2ccc([N+](=O)[O-])o2)C(=O)N1Cc1cn(-c2ccccc2)nn1 | nM | 84 |
| Cc1ccc(C(=O)CN2C(=O)CN(/N=C/c3ccc([N+](=O)[O-])o3)C2=O)cc1 | nM | 115 |
| O=C1CN(/N=C/c2ccc([N+](=O)[O-])o2)C(=O)N1Cc1cn(-c2ccc(S(=O)(=O)Nc3nccs3)cc2)nn1 | nM | 108 |
| NS(=O)(=O)c1ccc(-n2cc(CN3C(=O)CN(/N=C/c4ccc([N+](=O)[O-])o4)C3=O)nn2)cc1 | nM | 81 |
| O=C1CN(/N=C/c2ccc([N+](=O)[O-])o2)C(=O)N1Cc1ccccc1 | nM | 129 |
| C#CCN1C(=O)CN(/N=C/c2ccc([N+](=O)[O-])o2)C1=O | nM | 265 |
| O=C1CN(/N=C/c2ccc([N+](=O)[O-])o2)C(=O)N1Cc1cn(-c2ccc([N+](=O)[O-])cc2)nn1 | nM | 113 |
| O=C1CN(/N=C/c2ccc([N+](=O)[O-])o2)C(=O)N1Cc1cn(-c2ccc(Cl)cc2)nn1 | nM | 78 |
| O=C1CN(/N=C/c2ccc([N+](=O)[O-])o2)C(=O)N1Cc1ccc([N+](=O)[O-])cc1 | nM | 121 |

Reference source: ChEMBL document CHEMBL5380816
